Rule: measured logP below 3 gets Condition met; anything equal to or greater than 3 gets Condition not met.

{"Smiles Entry": "Clc1ccc(Br)cc1", "Label Class": "Condition not met"}
{"Smiles Entry": "Cc1ccc(Br)cc1", "Label Class": "Condition not met"}
{"Smiles Entry": "Clc1cccc(Br)c1", "Label Class": "Condition not met"}
{"Smiles Entry": "COc1ccc(F)cc1", "Label Class": "Condition met"}
{"Smiles Entry": "Fc1ccc(Cl)cc1", "Label Class": "Condition met"}
{"Smiles Entry": "CC(=O)c1cccc(N)c1", "Label Class": "Condition met"}
{"Smiles Entry": "CC(=O)c1cccc(Br)c1", "Label Class": "Condition met"}
{"Smiles Entry": "Cc1ccc(F)cc1", "Label Class": "Condition met"}
{"Smiles Entry": "Fc1ccc(F)cc1", "Label Class": "Condition met"}
{"Smiles Entry": "COc1ccc(OC)cc1", "Label Class": "Condition met"}
{"Smiles Entry": "Cc1cccc(Br)c1", "Label Class": "Condition not met"}
{"Smiles Entry": "CC(=O)c1cccc(C)c1", "Label Class": "Condition met"}
{"Smiles Entry": "COc1cccc(F)c1", "Label Class": "Condition met"}
{"Smiles Entry": "Cc1cccc(F)c1", "Label Class": "Condition met"}
{"Smiles Entry": "Fc1cccc(F)c1", "Label Class": "Condition met"}
